- Tested on: c-Abl (mouse);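 note: 11-residue human phosphosite peptides and single-mutation variants displayed on the E. coli surface, counted by deep sequencing, each peptide's frequency after selection divided by its frequency in the unselected input library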;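 note: frequency after pTyr selection over input frequency; kinase dosed for 20-30% of maximal phosphorylation in three min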
- protocol notes: phosphorylation enrichment, bacterial display (enrichment ratio); higher = better substrate or ligand; peptides without Tyr show the background

| monomer sequence | target or system | phosphorylation enrichment |
| --- | --- | --- |
| LWQSIYNLDAE [TNNT2_Y251_E254D] | c-Abl (mouse) | 0.706 |
| KRAIGYFSATS [FAM120A_Y327_YF] | c-Abl (mouse) | 0.362 |
| KFVVVYFRETD [IL17RB_Y447_I451T_YF] | c-Abl (mouse) | 0.734 |
| EWQQTYTFDSG [JUP_Y20_YF] | c-Abl (mouse) | 0.546 |
| EDSEFYKAFEE [CASQ2_Y179_YF] | c-Abl (mouse) | 0.693 |
| PLDGEYFILQI [TP53_Y327_T329I] | c-Abl (mouse) | 1.24 |
| EATKGYPDDPT [G6PD_Y322_L323P] | c-Abl (mouse) | 0.786 |
| NSRFTCKLEVK [USH2A_Y3747_Y3747C_YF] | c-Abl (mouse) | 1.48 |
| TYGVVYRAKDK [CDK11B_Y453] | c-Abl (mouse) | 0.531 |
| HLAQRYLIWEC [SCN5A_Y694_R689H] | c-Abl (mouse) | 0.929 |
| RLNWIYFKDQT [RS1_Y165_YF] | c-Abl (mouse) | 1.35 |
| QNTADYFDLFG [PTPN11_Y62_G60A_YF] | c-Abl (mouse) | 1.13 |
| KDLPNYNWKSF [KISS1_Y112_N115K] | c-Abl (mouse) | 0.72 |
